I'd be grateful if you could share measured After 2 weeks @ 40°C | Ala (area%) for these entries.
ASSAY_PROTOCOL: FIG. 10
Counter-ions that a name gives are not always drawn. Peptide text beside a SMILES is read from it. * marks the point of attachment. For = O=C*
Provide only the numeric value, understood in area%.

Q) Query: After 2 weeks @ 40°C | Ala (area%); subject: CSCC[C@H](NC=O)C(=O)N[C@@H](CC(=O)O)C(=O)NCC(=O)N[C@@H](CS)C(=O)N[C@@H](CCC(=O)O)C(=O)N[C@@H](CC(C)C)C(=O)O [NMG Di salt] (For-MDGCEL-OH)
A) 0

Q) Query: After 2 weeks @ 40°C | Ala (area%); subject: CSCC[C@H](NC=O)C(=O)N[C@@H](CC(=O)O)C(=O)NCC(=O)N[C@@H](CS)C(=O)N[C@@H](CCC(=O)O)C(=O)N[C@@H](CC(C)C)C(=O)O [NMG Tri salt] (For-MDGCEL-OH)
A) 0

Q) Query: After 2 weeks @ 40°C | Ala (area%); subject: CSCC[C@H](NC=O)C(=O)N[C@@H](CC(=O)O)C(=O)NCC(=O)N[C@@H](CS)C(=O)N[C@@H](CCC(=O)O)C(=O)N[C@@H](CC(C)C)C(=O)O [Foxy-5 free acid] (For-MDGCEL-OH)
A) 0

* * *

I'd be grateful if you could share measured After 4 weeks @ 40°C | Ala (area%) for these entries.
ASSAY_PROTOCOL: FIG. 10
Structures can show the parent of a compound that is named as a salt. Peptide text beside a SMILES is read from it. * marks the point of attachment. For = O=C*

Q) Query: After 4 weeks @ 40°C | Ala (area%); subject: CSCC[C@H](NC=O)C(=O)N[C@@H](CC(=O)O)C(=O)NCC(=O)N[C@@H](CS)C(=O)N[C@@H](CCC(=O)O)C(=O)N[C@@H](CC(C)C)C(=O)O [DEA Di salt] (For-MDGCEL-OH)
A) 0,25 area%

Q) Query: After 4 weeks @ 40°C | Ala (area%); subject: CSCC[C@H](NC=O)C(=O)N[C@@H](CC(=O)O)C(=O)NCC(=O)N[C@@H](CS)C(=O)N[C@@H](CCC(=O)O)C(=O)N[C@@H](CC(C)C)C(=O)O [HIS Di salt] (For-MDGCEL-OH)
A) 0,00 area%

Q) Query: After 4 weeks @ 40°C | Ala (area%); subject: CSCC[C@H](NC=O)C(=O)N[C@@H](CC(=O)O)C(=O)NCC(=O)N[C@@H](CS)C(=O)N[C@@H](CCC(=O)O)C(=O)N[C@@H](CC(C)C)C(=O)O [Foxy-5 free acid] (For-MDGCEL-OH)
A) 0,00 area%

* * *

ASSAY_PROTOCOL: FIG. 10
Structures can show the parent of a compound that is named as a salt. Peptide text beside a SMILES is read from it. * marks the point of attachment. For = O=C*
I'd be grateful if you could share measured After 2 weeks @ 40°C | Dimer (area%) for these entries.

Q) Query: After 2 weeks @ 40°C | Dimer (area%); subject: CSCC[C@H](NC=O)C(=O)N[C@@H](CC(=O)O)C(=O)NCC(=O)N[C@@H](CS)C(=O)N[C@@H](CCC(=O)O)C(=O)N[C@@H](CC(C)C)C(=O)O [LYS Di salt] (For-MDGCEL-OH)
A) 0,00 area%

Q) Query: After 2 weeks @ 40°C | Dimer (area%); subject: CSCC[C@H](NC=O)C(=O)N[C@@H](CC(=O)O)C(=O)NCC(=O)N[C@@H](CS)C(=O)N[C@@H](CCC(=O)O)C(=O)N[C@@H](CC(C)C)C(=O)O [Foxy-5 free acid] (For-MDGCEL-OH)
A) 0,00 area%

Q) Query: After 2 weeks @ 40°C | Dimer (area%); subject: CSCC[C@H](NC=O)C(=O)N[C@@H](CC(=O)O)C(=O)NCC(=O)N[C@@H](CS)C(=O)N[C@@H](CCC(=O)O)C(=O)N[C@@H](CC(C)C)C(=O)O [Na Tri salt] (For-MDGCEL-OH)
A) 13,20 area%

Q) Query: After 2 weeks @ 40°C | Dimer (area%); subject: CSCC[C@H](NC=O)C(=O)N[C@@H](CC(=O)O)C(=O)NCC(=O)N[C@@H](CS)C(=O)N[C@@H](CCC(=O)O)C(=O)N[C@@H](CC(C)C)C(=O)O [HIS Di salt] (For-MDGCEL-OH)
A) 0,00 area%

Q) Query: After 2 weeks @ 40°C | Dimer (area%); subject: CSCC[C@H](NC=O)C(=O)N[C@@H](CC(=O)O)C(=O)NCC(=O)N[C@@H](CS)C(=O)N[C@@H](CCC(=O)O)C(=O)N[C@@H](CC(C)C)C(=O)O [NMG Di salt] (For-MDGCEL-OH)
A) 0,93 area%

Q) Query: After 2 weeks @ 40°C | Dimer (area%); subject: CSCC[C@H](NC=O)C(=O)N[C@@H](CC(=O)O)C(=O)NCC(=O)N[C@@H](CS)C(=O)N[C@@H](CCC(=O)O)C(=O)N[C@@H](CC(C)C)C(=O)O [TRO Di salt] (For-MDGCEL-OH)
A) 0,00 area%

Q) Query: After 2 weeks @ 40°C | Dimer (area%); subject: CSCC[C@H](NC=O)C(=O)N[C@@H](CC(=O)O)C(=O)NCC(=O)N[C@@H](CS)C(=O)N[C@@H](CCC(=O)O)C(=O)N[C@@H](CC(C)C)C(=O)O [DEA Di salt] (For-MDGCEL-OH)
A) 1,18 area%

Q) Query: After 2 weeks @ 40°C | Dimer (area%); subject: CSCC[C@H](NC=O)C(=O)N[C@@H](CC(=O)O)C(=O)NCC(=O)N[C@@H](CS)C(=O)N[C@@H](CCC(=O)O)C(=O)N[C@@H](CC(C)C)C(=O)O [HIS Tri salt] (For-MDGCEL-OH)
A) 1,10 area%

Q) Query: After 2 weeks @ 40°C | Dimer (area%); subject: CSCC[C@H](NC=O)C(=O)N[C@@H](CC(=O)O)C(=O)NCC(=O)N[C@@H](CS)C(=O)N[C@@H](CCC(=O)O)C(=O)N[C@@H](CC(C)C)C(=O)O [NMG Tri salt] (For-MDGCEL-OH)
A) 1,13 area%

Q) Query: After 2 weeks @ 40°C | Dimer (area%); subject: CSCC[C@H](NC=O)C(=O)N[C@@H](CC(=O)O)C(=O)NCC(=O)N[C@@H](CS)C(=O)N[C@@H](CCC(=O)O)C(=O)N[C@@H](CC(C)C)C(=O)O [LYS Tri salt] (For-MDGCEL-OH)
A) 1,80 area%

* * *

ASSAY_PROTOCOL: pKa by potentiometric titration (Sirius T3)
Format: physicochemical
PARTICULARS: ISA water, terminal carboxylic (acidic); 25° C.; read-out: pKa [measured]
Peptide text beside a SMILES is read from it. * marks the point of attachment. For = O=C*
ENDPOINT_LABEL: pKa
Respond using a number only.

Q) Query: pKa; subject: CSCC[C@H](NC=O)C(=O)N[C@@H](CC(=O)O)C(=O)NCC(=O)N[C@@H](CS)C(=O)N[C@@H](CCC(=O)O)C(=O)N[C@@H](CC(C)C)C(=O)O [Foxy-5, For-Met-Asp-Gly-Cys-Glu-Leu-OH] (For-MDGCEL-OH)
A) 3.39

* * *

ASSAY_PROTOCOL: pKa by potentiometric titration (Sirius T3)
Format: physicochemical
PARTICULARS: ISA water, ASP carboxylic (acidic); 25° C.; read-out: pKa [measured]
Peptide text beside a SMILES is read from it. * marks the point of attachment. For = O=C*
ENDPOINT_LABEL: pKa

Q) Query: pKa; subject: CSCC[C@H](NC=O)C(=O)N[C@@H](CC(=O)O)C(=O)NCC(=O)N[C@@H](CS)C(=O)N[C@@H](CCC(=O)O)C(=O)N[C@@H](CC(C)C)C(=O)O [Foxy-5, For-Met-Asp-Gly-Cys-Glu-Leu-OH] (For-MDGCEL-OH)
A) 3.98

* * *

ASSAY_PROTOCOL: FIG. 10
Counter-ions that a name gives are not always drawn. Peptide text beside a SMILES is read from it. * marks the point of attachment. For = O=C*
ENDPOINT_LABEL: After 4 weeks @ 40°C | Ala (area%)

Q) Query: After 4 weeks @ 40°C | Ala (area%); subject: CSCC[C@H](NC=O)C(=O)N[C@@H](CC(=O)O)C(=O)NCC(=O)N[C@@H](CS)C(=O)N[C@@H](CCC(=O)O)C(=O)N[C@@H](CC(C)C)C(=O)O [TRO Tri salt] (For-MDGCEL-OH)
A) 0,00 area%

Q) Query: After 4 weeks @ 40°C | Ala (area%); subject: CSCC[C@H](NC=O)C(=O)N[C@@H](CC(=O)O)C(=O)NCC(=O)N[C@@H](CS)C(=O)N[C@@H](CCC(=O)O)C(=O)N[C@@H](CC(C)C)C(=O)O [HIS Tri salt] (For-MDGCEL-OH)
A) 0,00 area%

Q) Query: After 4 weeks @ 40°C | Ala (area%); subject: CSCC[C@H](NC=O)C(=O)N[C@@H](CC(=O)O)C(=O)NCC(=O)N[C@@H](CS)C(=O)N[C@@H](CCC(=O)O)C(=O)N[C@@H](CC(C)C)C(=O)O [DEA Tri salt] (For-MDGCEL-OH)
A) 1,82 area%
